target: T1, human MSLN-R2-his protein (human, UniProt Q13421 391-486); experiment: ELISA, coated antigen; antibody 0.0001 nM
T1 construct: also called human MSLN-R2 protein; hMSLN-R2-his; not shown: His tag
T1 sequence (Q13421 other isoform, or with tags, fused parts or gaps): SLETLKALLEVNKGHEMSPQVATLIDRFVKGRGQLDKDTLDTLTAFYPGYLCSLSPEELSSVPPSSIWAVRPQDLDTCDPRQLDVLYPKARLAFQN

{"binder": "S009-F3.74.20 (antibody, human IgG1, kappa, V domains shown, Human-murine chimeric antibody, human IgG1/kappa constant regions) VH: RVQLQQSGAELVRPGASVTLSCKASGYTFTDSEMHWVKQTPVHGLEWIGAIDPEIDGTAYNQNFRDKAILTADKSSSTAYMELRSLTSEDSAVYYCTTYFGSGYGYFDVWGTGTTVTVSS VL: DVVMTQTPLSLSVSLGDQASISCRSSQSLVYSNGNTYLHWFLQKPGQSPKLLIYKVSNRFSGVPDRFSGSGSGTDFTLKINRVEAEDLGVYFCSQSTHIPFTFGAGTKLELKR", "OD450 / OD450": 0.06}
